These measurements were taken from PubChem BioAssay (NCI).

TGI values for the compounds below.
# Tested on: U251 CNS
# EXPERIMENTAL_DETAILS: NCI tumour cell line growth inhibition, 48 h
OBSERVED_PROPERTY: TGI

- COMPOUND: "COc1ccc(Nc2[nH]n(C3=Nc4ccccc4Sc4ccccc43)c(=O)c2C#N)cc1"
  STUDY_SYSTEM: "U251 CNS"
  RESULT_VALUE: "43.3 µM"
- COMPOUND: "CC(=O)OC(=C(C#N)C#N)c1nccnc1C(=O)O"
  STUDY_SYSTEM: "U251 CNS"
  RESULT_VALUE: "> 100 µM"
- COMPOUND: "O=P1(N(CCCl)CCCl)Oc2c(Cl)cc(Cl)c(Cl)c2Cc2c(Cl)c(Cl)cc(Cl)c2O1"
  STUDY_SYSTEM: "U251 CNS"
  RESULT_VALUE: "> 100 µM"
- COMPOUND: "CN(C)C(=O)C(NCCO)c1ccccc1 (centres undefined)"
  STUDY_SYSTEM: "U251 CNS"
  RESULT_VALUE: "> 100 µM"
- COMPOUND: "N=C(N)SC(c1ccccc1)c1ccccc1"
  STUDY_SYSTEM: "U251 CNS"
  RESULT_VALUE: "29.4 µM"
- COMPOUND: "O=c1ncc(I)c[nH]1"
  STUDY_SYSTEM: "U251 CNS"
  RESULT_VALUE: "> 100 µM"
- COMPOUND: "OCC(O)C(O)C(O)c1nn[nH]n1 (centres undefined)"
  STUDY_SYSTEM: "U251 CNS"
  RESULT_VALUE: "> 100 µM"
- COMPOUND: "COc1ccc2c(c1)C(=O)c1c-2n(CCCCl)c(=O)c2cc([N+](=O)[O-])ccc12"
  STUDY_SYSTEM: "U251 CNS"
  RESULT_VALUE: "0.476 µM"
- COMPOUND: "NC(CCCNc1ccc(O)cc1)C(=O)O (centres undefined)"
  STUDY_SYSTEM: "U251 CNS"
  RESULT_VALUE: "> 100 µM"
